# experimental.target: Cellular tumor antigen p53 (Homo sapiens) (UniProt P04637)
# Sequence (P04637 whole entry, looked up): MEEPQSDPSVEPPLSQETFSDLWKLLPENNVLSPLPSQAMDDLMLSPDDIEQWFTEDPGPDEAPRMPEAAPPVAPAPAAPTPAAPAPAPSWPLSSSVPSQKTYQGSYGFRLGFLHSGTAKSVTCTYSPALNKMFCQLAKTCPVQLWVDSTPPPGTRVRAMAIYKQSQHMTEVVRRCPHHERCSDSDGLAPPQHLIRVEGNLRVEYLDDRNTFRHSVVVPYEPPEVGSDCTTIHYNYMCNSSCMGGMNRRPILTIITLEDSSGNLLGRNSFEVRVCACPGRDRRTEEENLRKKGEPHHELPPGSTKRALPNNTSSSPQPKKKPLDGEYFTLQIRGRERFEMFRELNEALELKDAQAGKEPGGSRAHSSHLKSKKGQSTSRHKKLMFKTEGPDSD
# method.summary: TOX21_p53_BLA_p3_ratio: Tox21 HCT-116 p53 Agonism Beta-lactamase Assay, Ratio, Phase 3 (AID 2283596)
Results filed as inconclusive are left out. Activity calls are given as the source filed them. How the source made its calls: active means hit-call score of the fitted dose curve at least 0.9, where 1 is the maximum; inconclusive means response in the unintended direction; inactive means score below 0.9.
Select the correct class. Options are TRUE = active, FALSE = inactive and nothing else.

Q) Name the outcome recorded for CC(=O)c1cc2c(cc1C)C(C)(C)C(C)CC2(C)C (configuration not stated) in the assay.
A) FALSE

Q) # fetch the recorded call for CNC1(c2ccccc2Cl)CCCCC1=O (configuration not stated) here
A) FALSE

Q) Identify the outcome logged in this assay for the molecule shown: CCCSc1cc(OC)c(CCN)cc1OC
A) TRUE

Q) Look up the recorded call for COP(=S)(OC)Oc1ccc([N+](=O)[O-])cc1Cl in this test.
A) FALSE

Q) Outcome? CCC1(c2ccccc2)C(=O)NC(=O)N(C(=O)c2ccccc2)C1=O (configuration not stated)
A) FALSE

Q) State the result this test recorded for Cc1ncc(CNC(=O)N(CCCl)N=O)c(N)n1 .
A) FALSE

Q) Please share the test call associated with CCOC(=O)COc1ccc(Cl)cc1Cl .
A) FALSE
